# System: CRL-7250
# ASSAY_NAME: Cytotoxic Profiling of Annotated Libraries Using Quantitative High-Throughput Screening (AID 1296008); note: % is set by controls: 0 for no effect and ±100 for the full control effect; nearly all actives have a fitted effect of over 60% in size
# EXPERIMENTAL_SETUP: Five cell lines viability, CellTiter-Glo ATP luminescence, 48-72 h; hits give low values
Records with an inconclusive call do not appear.
Assign max response to each entry below.
Numbers only, in %.

Reference set, count: 8
[[record]]
molecule = "CC1CCC2(C(=O)OC3OC(CO)C(O)C(O)C3O)CCC3(C(=O)O)C(=CCC4C5(C)CCC(OC6OC(C)C(O)C(O)C6O)C(C)(C)C5CCC43C)C2C1C (stereo unspecified)"
readout_type = "max response"
endpoint_result = 1.53

[[record]]
molecule = "COC1(CC(C)C)NC(=O)C(O)(Cc2ccccc2)NC1=O (stereo unspecified)"
readout_type = "max response"
endpoint_result = 2.47

[[record]]
molecule = "C=C1C2=CC(O)C(C)C1(C)CC/C(C)=C/CCC1(C)OC1C2=O (stereo unspecified)"
readout_type = "max response"
endpoint_result = -9.54

[[record]]
molecule = "CC1(C(=O)O)CCCC2(C)C1CCC13CC(CCC21)C1(CO)OC31 (stereo unspecified)"
readout_type = "max response"
endpoint_result = -3.21

[[record]]
molecule = "C[C@@H]1CCC2C(C)(C)[C@H](O)CC[C@]2(C)[C@@]12Cc1c(O)cc3c(c1O2)CN(CCO)C3=O (stereo partly specified)"
readout_type = "max response"
endpoint_result = -2.75

[[record]]
molecule = "C[C@@H]1C[C@H]2[C@@H]3CCC4=CC(=O)C=C[C@]4(C)[C@@]3(F)[C@@H](O)C[C@]2(C)[C@@]1(O)C(=O)COP(=O)(O)O"
readout_type = "max response"
endpoint_result = -4.68

[[record]]
molecule = "CO[C@H]1C=C2C(CC[C@H](O[C@@H]3O[C@H](CO)[C@@H](O)[C@@H](O)[C@H]3O)C2(C)C)[C@]2(C)CC[C@]3(C)C([C@H](C)C(O)C(C=C(C)C)O[C@@H]4O[C@H](CO)[C@@H](O)[C@@H](O)[C@H]4O)CC[C@@]3(C)C12 (stereo partly specified)"
readout_type = "max response"
endpoint_result = -4.36

[[record]]
molecule = "CC(C)(C)NCc1cc(Nc2ccnc3cc(Cl)ccc23)c2c(c1O)CCCC2"
readout_type = "max response"
endpoint_result = 1.77


For every item below, please supply its max response.
1. C1CCN2CC3C[C@@H](CN4CCCC[C@@H]34)[C@H]2C1
2. CCC(CC)n1ccc2c(C(=O)NCc3c(C)cc(C)[nH]c3=O)cc(C#N)cc21
3. Cc1onc(-c2ccccc2)c1C(=O)N[C@@H]1C(=O)N2[C@@H]1SC(C)(C)[C@@H]2C(=O)O

1: 3.38; 2: -1.01; 3: 4.38

For every item below, please supply its max response.
1. C[C@@H]1C/C=C/C=C\C=C\C=C\[C@H](O[C@@H]2O[C@H](C)[C@@H](O)[C@H](N)[C@@H]2O)C[C@@H]2O[C@](O)(C[C@@H](O)C[C@H]3O[C@@H]3/C=C/C(=O)O1)C[C@H](O)[C@H]2C(=O)O
2. CC(C)Nc1cc(-c2c[nH]c(C(=O)N[C@H](CO)c3cccc(Cl)c3)c2)c(Cl)cn1

1: 2.84; 2: -4.72

For every item below, please supply its max response.
1. CN1CCC(c2c[nH]c3ccc(NC(=O)c4ccc(F)cc4)cc23)CC1
2. COc1cc(NC(=O)c2ccccn2)ccc1Cl
3. COC(=O)C1C(CC(C)=O)C=CC(O)C12Oc1cc(C)cc(O)c1C2=O (stereo unspecified)

1. -9.85
2. 4.88
3. -4.03

====

# Test system: KB-3-1
# ASSAY_NAME: Cytotoxic Profiling of Annotated Libraries Using Quantitative High-Throughput Screening (AID 1296008); note: % is set by controls: 0 for no effect and ±100 for the full control effect; nearly all actives have a fitted effect of over 60% in size
# EXPERIMENTAL_SETUP: Five cell lines viability, CellTiter-Glo ATP luminescence, 48-72 h; hits give low values
Inconclusive results are not listed.
Assign max response to each entry below.
Numbers only, in %.

Reference set, count: 3
[[record]]
compound = "CCC/C=C/C(=O)O[C@H]1CC(C)(C)CC2[C@]13[C@H](O)O[C@@]21CCC2[C@@]4(C)CC[C@H](O[C@@H]5O[C@H](C(=O)O)[C@@H](O)[C@H](O[C@@H]6O[C@H](CO)[C@H](O)[C@H](O)[C@H]6O[C@@H]6O[C@@H](C)[C@H](O)[C@@H](O)[C@H]6O[C@@H]6OC[C@](O)(CO)[C@H]6O)[C@H]5O[C@@H]5O[C@H](CO)[C@H](O)[C@H](O)[C@H]5O)C(C)(C)C4CC[C@@]2(C)[C@]1(C)C[C@H]3OC(C)=O (stereo not given in full)"
endpoint_result = 6.11

[[record]]
compound = "Cc1nn(C)c(COc2ccc(N3CCN(S(=O)(=O)N(C)C)CC3)cc2)c1-c1cccc2c(CCCOc3cccc4ccccc34)c(C(=O)O)n(CCN3CCOCC3)c12"
endpoint_result = 3.5

[[record]]
compound = "CC1=CC2(O)/C=C/C(C)(O)CC(O)/C=C/C(=O)OC23C(=O)NC(CC(C)C)C3C1C (stereo not given)"
endpoint_result = -3.67


For every item below, please supply its max response.
1. C[C@@H](Nc1cc(NS(=O)(=O)N2CCC2)nc(SCc2cccc(F)c2F)n1)[C@@H](O)CO
2. CC1(C)C[C@H]2C3=CCC4[C@@]5(C)CC[C@H](O[C@H]6O[C@H](C(=O)O)[C@@H](O)[C@H](O)[C@H]6O[C@H]6O[C@H](CO)[C@@H](O)[C@H](O)[C@H]6O[C@@H]6O[C@H](CO)[C@@H](O)[C@H](O)[C@H]6O)[C@](C)(CO)C5CC[C@@]4(C)[C@]3(C)CC[C@@]2(C)[C@H](O[C@@H]2OC[C@H](O)[C@H](OC3O[C@H](CO)[C@@H](O)[C@H](O)[C@H]3O)[C@H]2O)[C@@H]1O (stereo not given in full)
3. C=C1C(OC(C)=O)C(=O)C2C(C)(C)C(OC(C)=O)CCC2(C)C1CC(OC(C)=O)/C(C)=C/COC(C)=O (stereo not given)
4. COC1CC(=O)C23C(=O)NC(CC(C)C)C2C(C)C(C)=CC3/C=C(\C)CCC1O (stereo not given)
5. COc1cc(/C=C/C(=O)O[C@H]2[C@H](OC(=O)/C=C/c3cc(OC)c(O)c(OC)c3)O[C@H](CO[C@@H]3O[C@H](CO)[C@@H](O)[C@H](O)[C@H]3O)[C@@H](O)[C@@H]2O)ccc1O
6. C[C@]12C=CC(=O)N[C@@H]1CC[C@@H]1[C@@H]2CC[C@]2(C)[C@@H](C(=O)Nc3cc(C(F)(F)F)ccc3C(F)(F)F)CC[C@@H]12
7. O=C(/C=C/c1ccc(O)cc1)OC[C@H]1O[C@@H](OC(=O)/C=C/c2ccccc2)[C@H](O)[C@@H](O)[C@@H]1O

1: -2.77; 2: 9.85; 3: -4.48; 4: 0.905; 5: 7.55; 6: 5.03; 7: -1.64

====

# Test system: NIH3T3
# ASSAY_NAME: qHTS assay to identify novel small-molecules to repurpose for Merkel cell carcinoma treatment (AID 1296009); note: nearly all actives have a fitted effect of over 60% in size
# EXPERIMENTAL_SETUP: MCC and control cell lines, CellTiter-Glo viability, 72 h; at 44.8 µM (top of the series) unless noted
Inconclusive results are not listed. Calls of active or inactive are those of the source. Calls follow the shape of the dose curve; as a rule, active = well fitted inhibition curve with a large enough effect; inconclusive = small, poorly fitted or top-dose-only effect; inactive = flat fitted curve, though single readings scatter.
READOUT_TYPE: outcome

Reference set, count: 5
[[record]]
compound = "OC1COC(OCC2OC(OCCc3ccccc3)C(O)C(O)C2O)C(O)C1O (configuration not stated)"
endpoint_result = "inactive [at 17.4 µM]"

[[record]]
compound = "COC(=O)[C@H](OC(C)=O)[C@H]1C(C)(C)C(=O)[C@H]2CC3=C4CC(=O)O[C@@H](c5ccoc5)[C@]4(C)CCC3[C@@]1(C)C2=O (some centres not stated)"
endpoint_result = "inactive [at 17.4 µM]"

[[record]]
compound = "CN[C@@H]1[C@@H](O)[C@@H](O[C@@H]2[C@@H](O)[C@H](O[C@H]3O[C@H](CN)[C@@H](O)[C@H](O)[C@H]3O)[C@@H](N)C[C@H]2NC(=O)[C@@H](O)CN)OC[C@]1(C)O"
endpoint_result = "inactive"

[[record]]
compound = "COc1c2c(c(C)c3c1C(=O)OC3)OC1(C)CC(O)C3(O)C(C)(C)OC(=O)CCC3(C)C1C2 (configuration not stated)"
endpoint_result = "inactive [at 17.4 µM]"

[[record]]
compound = "CCN(c1cc(C#CCN2CCOCC2)cc(C(=O)NCc2c(C)cc(C)[nH]c2=O)c1C)C1CCC(N(C)CCOC)CC1 (configuration not stated)"
endpoint_result = "inactive"


For every item below, please supply its outcome.
1. C=C(C)[C@@H]1CC[C@](C)(O)[C@@H](OC(=O)c2ccccc2)C1
2. O=C(O)c1cnn(-c2nc3cc(OC(F)(F)F)c(Cl)cc3[nH]2)c1
3. C[C@@H]1CC[C@]2(C(=O)O[C@@H]3O[C@H](CO)[C@@H](O)[C@H](O)[C@H]3O)CC[C@]3(C)C(=CCC4[C@@]5(C)C[C@@H](O)[C@H](O)C(C)(C)C5CC[C@]43C)C2[C@]1(C)O (some centres not stated)
4. CC(=O)OC[C@@]12[C@H](O)C[C@@H](C)[C@]3(C[C@@H](c4ccoc4)OC3=O)[C@H]1C[C@H](O)C[C@]21CO1
5. CC(=O)OCC(=O)O[C@@H]1[C@H]2[C@@H](OC(=O)c3ccccc3)[C@@H](C)C[C@]2(O)[C@H](OC(C)=O)C2(C)[C@H]3CC(C)(C)C(=O)[C@@H]3CC1(OC(C)=O)[C@@H]2OC(C)=O (some centres not stated)
6. CC[C@H]1OC(=O)C[C@@H](O)[C@H](C)[C@@H](O[C@@H]2O[C@H](C)[C@@H](O)[C@H](N(C)C)[C@H]2O)[C@@H](CCN2C[C@H](C)C[C@H](C)C2)C[C@@H](C)C(=O)/C=C/C(C)=C/[C@@H]1CO[C@@H]1O[C@H](C)[C@@H](O)[C@@H](OC)[C@H]1OC

["inactive", "inactive", "inactive [at 17.4 µM]", "inactive [at 17.4 µM]", "inactive [at 17.4 µM]", "inactive"]

Please give the measured outcome for this compound: C[C@@H]1CC[C@]2(C(=O)O)CC[C@]3(C(=O)O)C(=CCC4[C@@]5(C)CC[C@H](O[C@@H]6O[C@@H](C)[C@H](O[C@@H]7O[C@H](CO)[C@@H](O)[C@H](O)[C@H]7O)[C@@H](O)[C@H]6O)C(C)(C)C5CC[C@]43C)C2[C@H]1C (some centres not stated)
inactive [at 17.4 µM]
